- Target Or System: BTK (Homo sapiens, UniProt Q06187)
- Construct: endogenous in cells; host or cells: TMD8 cells
- Sequence (Q06187 whole entry): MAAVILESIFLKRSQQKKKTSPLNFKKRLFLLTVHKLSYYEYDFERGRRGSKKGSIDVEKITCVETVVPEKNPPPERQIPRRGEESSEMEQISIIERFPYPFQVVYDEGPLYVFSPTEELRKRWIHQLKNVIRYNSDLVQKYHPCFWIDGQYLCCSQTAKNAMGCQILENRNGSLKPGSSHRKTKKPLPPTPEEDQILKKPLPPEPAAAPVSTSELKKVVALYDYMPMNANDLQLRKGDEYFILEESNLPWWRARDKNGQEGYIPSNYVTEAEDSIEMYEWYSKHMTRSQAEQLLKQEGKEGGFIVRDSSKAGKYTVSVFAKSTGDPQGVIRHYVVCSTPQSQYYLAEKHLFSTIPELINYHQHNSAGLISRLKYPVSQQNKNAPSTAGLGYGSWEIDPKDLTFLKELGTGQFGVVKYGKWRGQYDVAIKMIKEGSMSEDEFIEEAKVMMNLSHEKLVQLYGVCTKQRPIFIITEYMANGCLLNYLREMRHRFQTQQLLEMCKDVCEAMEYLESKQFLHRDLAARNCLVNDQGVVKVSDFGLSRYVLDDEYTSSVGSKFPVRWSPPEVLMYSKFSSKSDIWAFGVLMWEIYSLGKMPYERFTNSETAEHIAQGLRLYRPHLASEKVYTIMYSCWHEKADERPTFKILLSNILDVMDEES
- Protocol Text: Cellular BTK HTRF assay (BTK degradation) in TMD8 cells
- Format: cell-based
- Measurement Parameters: four hours incubation, Total-BTK HTRF relative to DMSO-treated cells
- Procedure: Example 66: BTK Degradation Assay TMD8 cells were obtained from Tokyo Medical and Dental University and were grown in alpha-MEM (Fisher 12571063) supplemented with 10% heat-inactivated FBS (Corning Premium Fetal Bovine Serum from Fisher, MT35015CV). Compounds of the present invention were added to 50,000 TMD8 cells in round-bottom 96 well plates with a final DMSO concentration of […] and were incubated at 37° C. […] Readouts were reported as HTRF levels relative to HTRF levels of DMSO-treated cells. […]
Assay Readout: DC50

Here's what some known entries look like.
Entry under test: CN1CCN([C@H]2CCCN(c3cnc(C(N)=O)c(Nc4ccc(N5CCC6(CC5)CCN(c5ccc7c(c5)C(=O)N(C5CCC(=O)NC5=O)C7=O)C6)cc4)n3)C2)C1=O (some centres unmarked) [Compound 109] . Its DC50 was < 5 nM

Entry under test: CN1CCN([C@H]2CCCN(c3cnc(C(N)=O)c(Nc4ccc(N5CCC6(CCN(c7ccc8c(c7)C(=O)N(C7CCC(=O)NC7=O)C8=O)CC6)CC5)nc4)n3)C2)C1=O (some centres unmarked) [Compound 80] . Its DC50 was < 5 nM

Entry under test: CN1CCN([C@@H]2CCCN(c3cnc(C(N)=O)c(Nc4ccc(C5CCN(C[C@H]6CCN(c7ccc8c(=O)n(C9CCC(=O)NC9=O)ccc8c7)C6)CC5)cc4)n3)C2)C1=O (some centres unmarked) [Compound 115] . Its DC50 was < 5 nM

Entry under test: CN1CCN([C@@H]2CCCN(c3cnc(C(N)=O)c(Nc4ccc(CCCNc5ccc6c(c5)C(=O)N(C5CCC(=O)NC5=O)C6=O)cc4)n3)C2)C1=O (some centres unmarked) [Compound 65] . Its DC50 was > 15 nM

Could you now consider this next molecule?
Entry under test: CN1CCN([C@@H]2CCCN(c3cnc(C(N)=O)c(Nc4cccc(NC(=O)[C@H]5C[C@@H](OCCCc6cccc7c6C(=O)N(C6CCC(=O)NC6=O)C7=O)C5)c4)n3)C2)C1=O (some centres unmarked) [Compound 63] . Its DC50 was > 15 nM
